# System: Staphylococcus aureus strains isolated from atopic dermatitis (AD) patients
# ASSAY_TEXT: microbe, parasite or virus in culture
# SETTINGS: 18 h
ENDPOINT: MIC90

CC(=O)NC[C@H]1CN(c2ccc(N3CCOCC3)c(F)c2)C(=O)O1 [Linezolid, linezolid] : 4 µg/mL
CN[C@H](CC(C)C)C(=O)N[C@H]1C(=O)N[C@@H](CC(N)=O)C(=O)N[C@H]2C(=O)N[C@H]3C(=O)N[C@H](C(=O)N[C@H](C(=O)O)c4cc(O)cc(O)c4-c4cc3ccc4O)[C@H](O)c3ccc(c(Cl)c3)Oc3cc2cc(c3O[C@@H]2O[C@H](CO)[C@@H](O)[C@H](O)[C@H]2O[C@H]2C[C@](C)(N)[C@H](O)[C@H](C)O2)Oc2ccc(cc2Cl)[C@H]1O [Vancomycin, vancomycin] : 2 µg/mL
CN(C)[C@@H]1C(O)=C(C(N)=O)C(=O)[C@@]2(O)C(O)=C3C(=O)c4c(O)cccc4[C@@](C)(O)[C@H]3C[C@@H]12 [Tetracycline, tetracycline] : 32 µg/mL
CC(=O)O[C@H]1C[C@@]2(C)[C@@H](C[C@@H](O)[C@H]3[C@@]4(C)CC[C@@H](O)[C@@H](C)[C@@H]4CC[C@@]32C)/C1=C(\CCC=C(C)C)C(=O)O [Fusidic acid, fusidic acid] : 8 µg/mL

----------
# System: Staphylococcus aureus strains isolated from control group
# ASSAY_TEXT: microbe, parasite or virus in culture
# SETTINGS: 18 h
Recorded measurements of MIC50, one per entry
ENDPOINT: MIC50 (µg/mL)

CC(=O)O[C@H]1C[C@@]2(C)[C@@H](C[C@@H](O)[C@H]3[C@@]4(C)CC[C@@H](O)[C@@H](C)[C@@H]4CC[C@@]32C)/C1=C(\CCC=C(C)C)C(=O)O : 1
CN[C@H](CC(C)C)C(=O)N[C@H]1C(=O)N[C@@H](CC(N)=O)C(=O)N[C@H]2C(=O)N[C@H]3C(=O)N[C@H](C(=O)N[C@H](C(=O)O)c4cc(O)cc(O)c4-c4cc3ccc4O)[C@H](O)c3ccc(c(Cl)c3)Oc3cc2cc(c3O[C@@H]2O[C@H](CO)[C@@H](O)[C@H](O)[C@H]2O[C@H]2C[C@](C)(N)[C@H](O)[C@H](C)O2)Oc2ccc(cc2Cl)[C@H]1O : 1
CN(C)[C@@H]1C(O)=C(C(N)=O)C(=O)[C@@]2(O)C(O)=C3C(=O)c4c(O)cccc4[C@@](C)(O)[C@H]3C[C@@H]12 : 0.5
C/C(=C\C(=O)OCCCCCCCCC(=O)O)C[C@@H]1OC[C@H](C[C@@H]2O[C@H]2[C@@H](C)[C@H](C)O)[C@@H](O)[C@H]1O : 0.25
CC(=O)NC[C@H]1CN(c2ccc(N3CCOCC3)c(F)c2)C(=O)O1 : 2
CC1(C)S[C@@H]2[C@H](NC(=O)[C@H](N)c3ccccc3)C(=O)N2[C@H]1C(=O)O : 16
CCC[C@@H]1C[C@@H](C(=O)N[C@@H]([C@H]2O[C@H](SC)[C@H](O)[C@@H](O)[C@H]2O)[C@@H](C)O)N(C)C1 : 0.5
CC[C@H]1OC(=O)[C@H](C)[C@@H](O[C@H]2C[C@@](C)(OC)[C@@H](O)[C@H](C)O2)[C@H](C)[C@@H](O[C@@H]2O[C@H](C)C[C@H](N(C)C)[C@H]2O)[C@](C)(O)C[C@@H](C)C(=O)[C@H](C)[C@@H](O)[C@]1(C)O : 1
